# credit: ChEMBL document CHEMBL3112457

# targetSystem: Prolyl hydroxylase EGLN3 (Homo sapiens)
# testMethodNotes: Inhibition of PHD3 in human Hep3B cells assessed as stimulation of EPO release after 48 hrs by ELISA
# Assay type: cell-based, Hep 3B2
propertyLabel: EC50

Consider the reported EC50 for these compounds:
[ask] Answer with reported EC50 of COc1ccc(-n2c(=O)[nH]c3cc(C(=O)NCc4ccc5c(c4)OCO5)sc3c2=O)nc1OC
[reply] 1000 nM

[ask] Identify the reported EC50 for the following entry. O=C(O)CNC(=O)c1c(O)c(-c2cccnc2)cc2nccnc12
[reply] 100 nM

Others:
[ask] Determine from records and report EC50 for COc1ccc(-n2c(=S)[nH]c3cc(C(=O)NCc4ccc(Cl)cc4)sc3c2=O)nc1OC
[reply] 1000 nM

* * *

# targetSystem: Egl nine homolog 1 (Homo sapiens)
# testMethodNotes: Inhibition of human recombinant EGLN-1 using DLDLEALAPYIPADDDFQL as substrate after 20 mins by mass spectrophotometric analysis
propertyLabel: IC50 (nM)
Answer in nM, number only, no unit symbol.

[ask] Look up IC50 of O=C(O)CNC(=O)c1ncc(-c2ccc3ccccc3c2)cc1O and report it.
[reply] 17

* * *

Readings of IC50 for the listed compounds
# targetSystem: Egl nine homolog 1 (Homo sapiens)
# testMethodNotes: Inhibition of PHD2 (unknown origin) using P564 HIFlalpha as substrate after 1 hr by TR-FRET assay

[ask] Return the recorded IC50 value; entry: O=C(O)CCC(=O)C1=C(O)c2ccc(Cl)cc2C2(CCOCC2)C1=O
[reply] < 100 nM

[ask] Specify measured IC50 for O=C(O)CNC(=O)C1=C(O)c2ccc(Cl)cc2C2(CCOCC2)C1=O .
[reply] < 100 nM

More entries:
[ask] Read the entry Cn1c(=O)c(C(=O)NCC(=O)O)c(O)c2ccc(-c3cccnc3)nc21 and write its reported IC50.
[reply] < 50 nM

* * *

# targetSystem: Egl nine homolog 1 (Homo sapiens, UniProt Q9GZT9)
# Sequence (Q9GZT9 whole entry): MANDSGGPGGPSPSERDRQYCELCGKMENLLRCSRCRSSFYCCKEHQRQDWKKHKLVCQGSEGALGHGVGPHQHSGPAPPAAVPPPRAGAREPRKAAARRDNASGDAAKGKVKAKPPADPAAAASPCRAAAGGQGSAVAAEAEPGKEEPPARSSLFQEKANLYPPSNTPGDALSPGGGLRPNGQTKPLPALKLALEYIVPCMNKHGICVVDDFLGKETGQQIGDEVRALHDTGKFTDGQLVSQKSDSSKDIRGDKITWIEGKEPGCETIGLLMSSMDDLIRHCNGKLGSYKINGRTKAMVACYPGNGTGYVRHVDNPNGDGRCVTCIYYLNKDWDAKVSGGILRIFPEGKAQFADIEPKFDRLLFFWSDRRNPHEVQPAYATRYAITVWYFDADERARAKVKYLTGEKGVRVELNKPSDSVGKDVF
# testMethodNotes: Inhibition of FLAG-tagged full length PHD2 (unknown origin) expressed in Sf9 cells using HIF-1alpha peptide as substrate preincubated for 30 mins followed by substrate addition measured after 2 hrs by HTRF assay in presence of 2-oxoglutarate
propertyLabel: IC50

Guide cases for IC50, answers given:
[ask] Assign IC50 to the following record: O=C(O)CNC(=O)c1c(O)c2c(n(CC3Cc4ccccc4C3)c1=O)COC2
[reply] < 10 nM

[ask] State, in one line, measured IC50 of O=C(O)CNC(=O)c1c(O)c2c(n(Cc3ccc(C(F)(F)F)cc3)c1=O)CN(C(=O)C1CC1)C2
[reply] < 10 nM

Now for a further molecule.
[ask] Hello, please tell me recorded IC50 for this one: O=C(O)CNC(=O)c1c(O)c2c(n(Cc3ccc(C(F)(F)F)cc3)c1=O)CSC2
[reply] < 10 nM

* * *

# targetSystem: Prolyl hydroxylase EGLN3 (Homo sapiens, UniProt Q9H6Z9)
# Sequence (Q9H6Z9 whole entry): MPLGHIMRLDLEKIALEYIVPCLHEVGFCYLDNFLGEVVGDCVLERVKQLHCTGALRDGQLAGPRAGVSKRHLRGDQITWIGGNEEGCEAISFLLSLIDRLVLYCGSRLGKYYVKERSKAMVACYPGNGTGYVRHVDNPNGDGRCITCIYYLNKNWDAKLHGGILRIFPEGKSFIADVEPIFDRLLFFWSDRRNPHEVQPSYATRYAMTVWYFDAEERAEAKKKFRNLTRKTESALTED
# testMethodNotes: Inhibition of PHD3 in human Hep3B cells assessed as stimulation of EPO release after 48 hrs by ELISA
Readings of EC50 for the listed compounds
Report only the number, with the unit nM understood.

[ask] Hello, please tell me recorded EC50 for this one: CC(C)(C)c1ccc(Cn2nc(-c3ccc(Cl)cc3)c(O)c(C(=O)NCC(=O)O)c2=O)cc1
[reply] 400

[ask] Return reported EC50. Input compound: COc1ccc(-n2c(=S)[nH]c3sc(C(=O)NCc4ccc(Cl)cc4)c(C)c3c2=O)nc1OC
[reply] 1000

Continuing:
[ask] State its EC50: N#Cc1ccccc1Cn1c(=O)c(C(=O)NCC(=O)O)c(O)n(Cc2ccccc2)c1=O
[reply] 400
